assay_text: solvent given as SMILES
measurement_parameters: in CCCC#N
Listed here: items and their measured solvation free energy, 298 K.

smiles_record	unit_text	solvation free energy, 298 K
Cc1ccccc1	kcal/mol	-5.01
CC(C)CC(C)C	kcal/mol	-3.41
CCCC(C)C	kcal/mol	-3.05
C1CCCCC1	kcal/mol	-3.45
C=CCCC	kcal/mol	-2.56
c1ccccc1	kcal/mol	-4.29
C1CCCC1	kcal/mol	-2.86
C=CCCCCC	kcal/mol	-3.78

* * *

assay_text: solvent given as SMILES
measurement_parameters: in CCCCC
Define the label as true (1) when solvation free energy, 298 K is strictly less than -3 kcal/mol and as false (0) in all remaining cases.

smiles_record	class_label
CCCC(C)C	true (1)
Cc1ccccc1	true (1)
C=CCC	false (0)
C1CCCCC1	true (1)
C=C	false (0)
CC(C)CC(C)C	true (1)
